The reported measurements were obtained from patent US20250270222A1.

Target: AAK1 (amino acids T27-A365) (Homo sapiens (Human))
Sequence (Q2M2I8 27-365): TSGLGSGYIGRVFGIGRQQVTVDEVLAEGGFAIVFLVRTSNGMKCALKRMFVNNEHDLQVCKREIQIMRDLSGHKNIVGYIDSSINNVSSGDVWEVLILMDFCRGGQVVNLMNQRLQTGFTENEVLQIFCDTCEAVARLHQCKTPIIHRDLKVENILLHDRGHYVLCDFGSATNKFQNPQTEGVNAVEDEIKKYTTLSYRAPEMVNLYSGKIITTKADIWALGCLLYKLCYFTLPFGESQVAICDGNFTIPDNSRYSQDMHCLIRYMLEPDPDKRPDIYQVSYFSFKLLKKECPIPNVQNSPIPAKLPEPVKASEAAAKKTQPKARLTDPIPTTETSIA
Test: AAK1 pSENs assay
Type: biochemical
Conditions: ratio of AAK1 pSENs activity to GAK pSENs activity
observable: AAK1:GAK pSENs Selectivity

Example compounds with recorded AAK1:GAK pSENs Selectivity:
item_smiles=C[C@@]1(OC(=O)N[C@H]2CCN(c3ccn4ncc(-c5cccnc5OC5CC5)c4n3)C2)CCNC1 observable="AAK1:GAK pSENs Selectivity" result="C (C: 0.076-0.15)"
item_smiles=COC(=O)N1CC(Oc2ncccc2-c2cnn3ccc(N4CCN(C(=O)O[C@@H]5CC(=O)N(C6COC6)C5)CC4)nc23)C1 observable="AAK1:GAK pSENs Selectivity" result="C (C: 0.076-0.15)"
item_smiles=O=C1C[C@H](OC(=O)N2CCN(c3ccn4ncc(-c5cccnc5OC5CC5)c4n3)CC2)CN1CCO observable="AAK1:GAK pSENs Selectivity" result="A (A: ≤0.015)"
item_smiles=COCCN1C[C@@H](OC(=O)N2CCN(c3ccn4ncc(-c5cc(F)cnc5OC5CC5)c4n3)CC2)CC1=O observable="AAK1:GAK pSENs Selectivity" result="A (A: ≤0.015)"

Note: attention shifts to another entry.
// lookup AAK1:GAK pSENs Selectivity | system=AAK1 (amino acids T27-A365) (Homo sapiens (Human)) | key= CN1C[C@H](OC(=O)N2CCN(c3ccn4ncc(-c5cccnc5OC5CC5)c4n3)CC2)CC1=O
A (A: ≤0.015)

###

Molecular target: AAK1 (amino acids T27-A365) (Homo sapiens (Human))
Assay: AAK1 pSENs assay
Type: biochemical
Conditions: ratio of AAK1 pSENs activity to GAK pSENs activity
observable: AAK1:GAK pSENs Selectivity

compound="CN(CCNc1ccn2ncc(-c3cccnc3OC3CC3)c2n1)C(=O)OC(C)(C)C [Compound I-12]" result="A (A: ≤0.015)"
compound="CN1C[C@@H](OC(=O)N2CCN(c3ccn4ncc(-c5cc(OC(F)(F)F)cnc5OC5CC5)c4n3)CC2)CC1=O [Compound I-88]" result="B (B: 0.016-0.075)"
compound="CC1(OC(=O)N2CCN(c3ccn4ncc(-c5cccnc5OC5CCC5)c4n3)CC2)COC1 [Compound I-17]" result="B (B: 0.016-0.075)"
compound="CC(C)Oc1ncccc1-c1cnn2ccc(N3CCN(C(=O)O[C@]4(C)CCNC4)CC3)nc12 [Compound I-22]" result="B (B: 0.016-0.075)"
compound="COC(=O)[C@@H]1CN(c2ccn3ncc(-c4cccnc4OC4CC4)c3n2)CCN1C(=O)O[C@@H]1CNC(=O)C1 [Compound I-41-5]" result="C (C: 0.076-0.15)"

Which AAK1:GAK pSENs Selectivity reading was recorded for the compound CC(=O)N1CC(Oc2ncccc2-c2cnn3ccc(NCCN(C)C(=O)OC(C)(C)C)nc23)C1 [Compound I-63] ?
A (A: ≤0.015)

For the compound CC1(OC(=O)N2CCN(c3ccn4ncc(-c5cccnc5OC5CC5)c4n3)CC2)CCNC1 (centres unmarked) [Compound I-13-5] , what AAK1:GAK pSENs Selectivity is on record?
B (B: 0.016-0.075)

Given the entry C#CC1(OC(=O)N2CCN(c3ccn4ncc(-c5cccnc5OC5CC5)c4n3)CC2)CCNC1 (centres unmarked) [Compound I-16-7] , report its measured AAK1:GAK pSENs Selectivity.
B (B: 0.016-0.075)

Suppose we examine the compound CN1C[C@@H](OC(=O)N2CCN(c3ccn4ncc(Cl)c4n3)CC2)CC1=O [Compound I-96] ; what AAK1:GAK pSENs Selectivity value has been reported?
E (E: >1.00)

# input compound: [2H]C([2H])([2H])N1C[C@@H](OC(=O)N2CCN(c3nc4c(-c5cc(F)cnc5OC5CC5)cnn4cc3F)CC2)CC1=O [Compound I-118] ; wanted: its AAK1:GAK pSENs Selectivity
A (A: ≤0.015)

Sample CN1C[C@@H](OC(=O)N2CCN(c3nc4c(-c5cccnc5OC5CCOC5)cnn4cc3F)CC2)CC1=O (some centres unmarked) [Compound I-120] — what was its AAK1:GAK pSENs Selectivity?
B (B: 0.016-0.075)

###

Biological target: UniProt Q2M2I8
Assay: AAK1 pSENs assay
Format: biochemical
Conditions: ratio of AAK1 pSENs activity to GAK pSENs activity
observable: AAK1:GAK pSENs Selectivity

Take a look at these entries with their results.
compound="[2H]C([2H])([2H])N1C[C@@H](OC(=O)N2CCN(c3nc4c(-c5cc(OC)cnc5OC5CC5)cnn4cc3F)CC2)CC1=O [Compound I-117]" target_under_test="UniProt Q2M2I8" result="A (A: ≤0.015)"
compound="CC1(OC(=O)N2CCN(c3ccn4ncc(-c5cccnc5OC5COC5)c4n3)CC2)COC1 [Compound I-18]" target_under_test="UniProt Q2M2I8" result="A (A: ≤0.015)"
compound="COCCN1C[C@@H](OC(=O)N2CCN(c3ccn4ncc(-c5cccnc5OC5CC5)c4n3)CC2)CC1=O [Compound I-115]" target_under_test="UniProt Q2M2I8" result="A (A: ≤0.015)"
compound="O=C1C[C@H](OC(=O)N2CCN(c3ccn4ncc(-c5cccnc5OC5CC5)c4n3)CC2)CN1CCOCc1ccccc1 [Compound I-37]" target_under_test="UniProt Q2M2I8" result="A (A: ≤0.015)"
compound="CN1C[C@@H](OC(=O)N2CCN(c3nc4c(-c5cccnc5OC5CC5)cnn4cc3O)CC2)CC1=O [Compound I-110]" target_under_test="UniProt Q2M2I8" result="E (E: >1.00)"

Observed AAK1:GAK pSENs Selectivity on UniProt Q2M2I8 for [2H]C([2H])([2H])N1C[C@@H](OC(=O)N2CCN(c3ccn4ncc(-c5cccnc5OC5CC5)c4n3)CC2)CC1=O [Compound I-113] , please.
A (A: ≤0.015)

Query AAK1:GAK pSENs Selectivity on UniProt Q2M2I8 for [2H]C([2H])([2H])N1C[C@@H](OC(=O)N2CCN(c3nc4c(-c5cccnc5OC5CC5)cnn4cc3F)CC2)CC1=O [Compound I-116]
A (A: ≤0.015)

Item: CC(C)(C)OC(=O)N1CC(Oc2ncccc2-c2cnn3ccc(N4CCN(C(=O)O[C@@H]5CNC(=O)C5)CC4)nc23)C1 [Compound I-42] Test system: UniProt Q2M2I8 Read-out: AAK1:GAK pSENs Selectivity Value: ?
A (A: ≤0.015)

Notebook entry, UniProt Q2M2I8 assay: AAK1:GAK pSENs Selectivity of O=C1C[C@H](OC(=O)N2CCN(c3ccn4ncc(-c5cccnc5OC5COC5)c4n3)CC2)CN1 [Compound I-25] = ?
A (A: ≤0.015)

###

Target: GAK (amino acids Q25-N335) (Homo sapiens (Human))
Sequence (O14976 25-335): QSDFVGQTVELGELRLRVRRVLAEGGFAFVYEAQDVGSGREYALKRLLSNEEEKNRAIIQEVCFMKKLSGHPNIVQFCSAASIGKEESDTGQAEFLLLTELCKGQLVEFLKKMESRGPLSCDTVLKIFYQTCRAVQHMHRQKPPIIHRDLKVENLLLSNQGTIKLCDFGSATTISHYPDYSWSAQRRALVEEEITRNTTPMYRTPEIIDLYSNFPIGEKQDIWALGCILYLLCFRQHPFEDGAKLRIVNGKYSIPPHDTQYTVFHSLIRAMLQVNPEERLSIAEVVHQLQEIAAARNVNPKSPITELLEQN
pIC50: −log10 of the molar value.
observable: pIC50

Fill in: pIC50 of N#C[C@@H]1CN(c2ccn3ncc(-c4cccnc4OC4CC4)c3n2)CCN1C(=O)O[C@@H]1CNC(=O)C1 is ___
< 5.82

Record request: pIC50 value, item CN(CCNc1ccn2ncc(-c3cccnc3OC3CC3)c2n1)C(=O)O[C@@H]1CNC(=O)C1
< 5.82

pIC50 lookup needed for CN1C[C@@H](OC(=O)N2CCN(c3nc4c(-c5cccnc5OC5CC5)cnn4cc3O)CC2)CC1=O , thanks.
< 5.82

###

Target: UniProt:Q2M2I8
Assay: AAK1 pSENs assay
Assay type: biochemical
Details: ratio of AAK1 pSENs activity to GAK pSENs activity
observable: AAK1:GAK pSENs Selectivity

Worked cases, AAK1:GAK pSENs Selectivity given:
molecule=O=C1C[C@H](OC(=O)N2CCN(c3ccn4ncc(-c5cccnc5OC5CC5)c4n3)CC2)CN1 observable="AAK1:GAK pSENs Selectivity" result="A (A: ≤0.015)"
molecule=C[C@@H]1CN(c2ccn3ncc(-c4cccnc4OC4CC4)c3n2)CCN1C(=O)O[C@@H]1CNC(=O)C1 observable="AAK1:GAK pSENs Selectivity" result="A (A: ≤0.015)"
molecule=O=C(O[C@H]1CO[C@H]2OCC[C@H]21)N1CCN(c2ccn3ncc(-c4cccnc4OC4CC4)c3n2)CC1 observable="AAK1:GAK pSENs Selectivity" result="A (A: ≤0.015)"
molecule="COc1ncccc1-c1cnn2ccc(N3CCN(C(=O)OC4CCNC4)CC3)nc12 (stereo not drawn)" observable="AAK1:GAK pSENs Selectivity" result="B (B: 0.016-0.075)"
molecule="COc1ncccc1-c1cnn2ccc(N3CCN(C(=O)OC4(C)CCNC4)CC3)nc12 (stereo not drawn)" observable="AAK1:GAK pSENs Selectivity" result="B (B: 0.016-0.075)"

Which AAK1:GAK pSENs Selectivity reading was recorded for the molecule O=C(O[C@H]1CO[C@H]2OCC[C@H]21)N1CCN(c2ccn3ncc(-c4ccccc4OC4CC4)c3n2)CC1 ?
A (A: ≤0.015)

// returns reported AAK1:GAK pSENs Selectivity for input CN1C[C@@H](OC(=O)N2CCN(c3ccn4ncc(-c5cccnc5OC5CCOC5)c4n3)CC2)CC1=O (stereo partly drawn)
B (B: 0.016-0.075)

Which AAK1:GAK pSENs Selectivity reading was recorded for the molecule O=C1C[C@H](OC(=O)N2CCN(c3ccn4ncc(-c5cccnc5NC5CCC5)c4n3)CC2)CN1 ?
E (E: >1.00)

# query: AAK1:GAK pSENs Selectivity of entry CC(C)(C)OC(=O)N1CCC(N2C[C@H](OC(=O)N3CCN(c4ccn5ncc(-c6cccnc6OC6CC6)c5n4)CC3)CC2=O)CC1
D (D: 0.16-1.00)
